Molecular target: Wee1 kinase domain (Homo sapiens, UniProt P30291)
Construct: Wee1 kinase domain was purchased from Carna (catalog #05-177); purchased Carna 05-177
Sequence (P30291 299-569 limits assumed): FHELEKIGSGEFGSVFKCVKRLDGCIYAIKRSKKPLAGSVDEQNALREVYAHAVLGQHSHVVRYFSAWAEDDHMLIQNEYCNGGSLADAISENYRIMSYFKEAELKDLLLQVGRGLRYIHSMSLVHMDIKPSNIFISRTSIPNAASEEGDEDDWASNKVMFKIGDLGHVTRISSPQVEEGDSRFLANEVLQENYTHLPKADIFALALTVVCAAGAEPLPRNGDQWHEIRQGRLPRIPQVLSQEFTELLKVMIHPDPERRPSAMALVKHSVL
Assay: Wee1 Kinase Biochemical Assay (ADP-Glo)
Conditions: Wee1 kinase domain, 15 uM ATP, ADP-Glo
pIC50: −log10 of the molar value.
measured.property: pIC50

{"compound": "CN1CCC(n2cnc(Nc3ncc4c(n3)N(c3cccc(N=S(C)(C)=O)n3)[C@@H]3CC(C)(C)OC[C@]43C)c2)CC1 (single isomer, unassigned) [Example 205]", "pIC50": "> 8.00"}
{"compound": "CNCc1cccc(N2c3nc(Nc4ccc([C@H]5CCC(=O)N5C)nc4)ncc3[C@@]3(C)COC(C)(C)C[C@@H]23)n1 (single isomer, unassigned) [Example 98]", "pIC50": "> 8.00"}
{"compound": "CNC(=O)c1ccc(Nc2ncc3c(n2)N(c2cccc(N=S(C)(C)=O)n2)[C@H]2CC(C)(C)OC[C@@]32C)cc1 (single isomer, unassigned) [Example 116]", "pIC50": "6.00 to 7.00"}

[ask] Fill blank: measured pIC50 of the compound Cc1cc(Nc2ncc3c(n2)N(c2cccc(N4C(=O)OC[C@@H]4C)n2)[C@H]2CC(C)(C)OC[C@@]32C)ccc1N1CCN(C)CC1 (single isomer, unassigned) [Example 236] is ____.
[reply] 7.00 to 8.00

[ask] Field entry: CN1CC[C@@](C)(c2ccc(Nc3ncc4c(n3)N(c3cccc(N=S(C)(C)=O)n3)[C@@H]3CC(C)(C)OC[C@]43C)cc2)C1 (single isomer, unassigned) [Example 169]
[reply] > 8.00

----------
Target: Wee1 kinase domain (Homo sapiens)
Construct: Wee1 kinase domain was purchased from Carna (catalog #05-177); purchased Carna 05-177
Test: Wee1 Kinase Biochemical Assay (ADP-Glo)
Conditions: Wee1 kinase domain, 15 uM ATP, ADP-Glo
pIC50: −log10 of the molar value.
measured.property: pIC50

Here's what some known entries look like.
{"compound": "C[C@H]1COC(=O)N1c1cccc(N2c3nc(Nc4ccc([C@]5(C)CCN(C)C5)cc4)ncc3[C@@]3(C)COC(C)(C)C[C@@H]23)n1 (single isomer, unassigned)", "pIC50": "> 8.00"}
{"compound": "CNCc1cccc(N2c3nc(Nc4ccc(N5CCS(=N)(=O)CC5)cc4)ncc3[C@@]3(C)COC(C)(C)C[C@@H]23)n1 (single isomer, unassigned)", "pIC50": "> 8.00"}
{"compound": "C[C@H]1COC(=O)N1c1cccc(N2c3nc(Nc4ccc([C@@H]5CCNC5)nc4)ncc3[C@@]3(C)COC(C)(C)C[C@@H]23)n1 (single isomer, unassigned)", "pIC50": "> 8.00"}
{"compound": "CN1CCC[C@@H]1c1ccc(Nc2ncc3c(n2)N(c2cccc(N=S(C)(C)=O)n2)[C@H]2CC(C)(C)OC[C@@]32C)cn1 (single isomer, unassigned)", "pIC50": "7.00 to 8.00"}
{"compound": "CN[C@H](Cc1ccc(Nc2ncc3c(n2)N(c2cccc(N4C(=O)OC[C@@H]4C)n2)[C@H]2CC(C)(C)OC[C@@]32C)cc1)C(=O)O (single isomer, unassigned)", "pIC50": "6.00 to 7.00"}
{"compound": "CN1CCC[C@H](n2cc(Nc3ncc4c(n3)N(c3cccc(N=S(C)(C)=O)n3)[C@H]3CC(C)(C)OC[C@@]43C)cn2)C1 (single isomer, unassigned)", "pIC50": "7.00 to 8.00"}
{"compound": "CNCc1cccc(N2c3nc(Nc4ccc(C5CCOCC5)cc4)ncc3[C@@]3(C)COC(C)(C)C[C@@H]23)n1 (single isomer, unassigned)", "pIC50": "> 8.00"}
{"compound": "CC1(C)C[C@H]2N(c3cccc(N=S(C)(C)=O)n3)c3nc(Nc4cncc(F)c4)ncc3[C@@]2(C)CO1 (single isomer, unassigned)", "pIC50": "> 8.00"}
{"compound": "C[C@H]1COC(=O)N1c1cccc(N2c3nc(Nc4ccc(O[C@H]5CCNC5)nc4)ncc3[C@@]3(C)COC(C)(C)C[C@@H]23)n1 (single isomer, unassigned)", "pIC50": "> 8.00"}
{"compound": "C[C@H]1COC(=O)N1c1cccc(N2c3nc(Nc4ccc(N5C[C@H]6C[C@@H]5CN6)cc4)ncc3[C@@]3(C)COC(C)(C)C[C@@H]23)n1 (single isomer, unassigned)", "pIC50": "> 8.00"}

[ask] Fill blank: measured pIC50 of the compound C[C@H]1COC(=O)N1c1cccc(N2c3nc(Nc4ccc(C5CNC5)cc4)ncc3[C@@]3(C)COC(C)(C)C[C@@H]23)n1 (single isomer, unassigned) is ____.
[reply] > 8.00

[ask] Field entry: C[C@H]1COC(=O)N1c1cccc(N2c3nc(Nc4ccc([C@H]5CCN(C)C5)cc4)ncc3[C@]3(C)COC(C)(C)C[C@H]23)n1 (single isomer, unassigned)
[reply] > 8.00

[ask] Field entry: CC1(C)C[C@@H]2N(c3cccc(N=S(C)(C)=O)n3)c3nc(Nc4ccc(O[C@@H]5CCNC5)cc4)ncc3[C@]2(C)CO1 (single isomer, unassigned)
[reply] 7.00 to 8.00
